- System Under Test: T1, recombinant human HER2 extracellular domain protein (human, UniProt P04626 23-652)
- T1 construct: range 23-652; Range is printed for the immunogen/panning protein; also called ErbB2; recombinant HER2 protein
- Assay Summary: BLI, Protein A capture
Attribute: kon
Readout: kon (M⁻¹ s⁻¹)

Binder	Readout	Meas Value
Hu2117HK-Mu14 (Fc fusion, scFv-hIgG1 Fc; not shown: human IgG1 Fc) scFv: EVQLVESGGGLVQPGGSLRLSCAASGFTYSSYGMSWVRQAPGKGLEWVASISGGGSYTKYPGSVKGRFTISRDNSKNTLYLQMNSLRAEDTAVYYCARDYAGFFDVWGQGTLVTVSSGGGGSGGGGSGGGGSDIQMTQSPSSLSASVGDRVTITCRSSQSLVHSNGNTYLHWYQQKPGKAPKLLIYKVSNRFSGVPSRFSGSGSGTDFTLTISSLQPEDFATYFCSQSTHVPYTFGQGTKVEIK	kon	87200
Hu2117HK-Mu12 (Fc fusion, scFv-hIgG1 Fc; not shown: human IgG1 Fc) scFv: EVQLVESGGGLVQPGGSLRLSCAASGFTYSSYGMSWVRQAPGKGLEWVASISGGGSYTKYPDSVKGRFTISRDNSKNTLYLQMNSLRAEDTAVYYCARDYAGFFDVWGQGTLVTVSSGGGGSGGGGSGGGGSDIQMTQSPSSLSASVGDRVTITCRSSQSLVHSNGNTYLHWYQQKPGKAPKLLIYKVSNRPSGVPSRFSGSGSGTDFTLTISSLQPEDFATYFCSQSTHVPYTFGQGTKVEIK	kon	70800
